Assay: gradient 5% acetonitrile 3 min, to 50% in 2 min, to 85% in 15 min, held 3 min, 100 µL/min
Conditions: column: Zorbax Extend-C18 2.1 x 50 mm; eluents: water / acetonitrile, 0.1% formic acid
reportedProperty: RP-LC retention time (s)

[[record]]
compound = "COc1ccc(-c2noc(C3CC(=O)N(c4ccc5c(c4)OCO5)C3)n2)cc1OC (centres undefined)"
reportedproperty = "RP-LC retention time"
reading = 886

[[record]]
compound = "CCOc1ccc(N2CCCCn3c2nc2c3c(=O)n(CC)c(=O)n2C)cc1"
reportedproperty = "RP-LC retention time"
reading = 902

[[record]]
compound = "COc1cccc(-c2nn3c(COc4ccc(Br)cc4)nnc3s2)c1OC"
reportedproperty = "RP-LC retention time"
reading = 1130

[[record]]
compound = "O=C(Nc1ccc(-c2ccno2)cc1)C1CCN(C(=O)C2Sc3ccccc3NC2=O)CC1 (centres undefined)"
reportedproperty = "RP-LC retention time"
reading = 766

[[record]]
compound = "CCCCC(=O)Nc1nc(-c2ccc3c(c2)N(C)C(=O)CO3)c(C)s1"
reportedproperty = "RP-LC retention time"
reading = 925

[[record]]
compound = "CCOC(=O)c1nc(N(Cc2ccccc2)C(C)C)c2ccccc2n1"
reportedproperty = "RP-LC retention time"
reading = 1000

[[record]]
compound = "FC(F)(F)c1cccc(-c2cncc(N3CCN(c4ccccn4)CC3)n2)c1"
reportedproperty = "RP-LC retention time"
reading = 740

[[record]]
compound = "COc1ccc(NC(=O)C2CCc3nc(N4CCC(C)CC4)ncc3C2)c(C)c1 (centres undefined)"
reportedproperty = "RP-LC retention time"
reading = 747

[[record]]
compound = "CCOC(=O)c1[nH]c(C)c(CCC(=O)N2CCC(C(=O)NCCN3CCCCC3)CC2)c1C"
reportedproperty = "RP-LC retention time"
reading = 590


Ref: the METLIN SMRT retention time set (Domingo-Almenara et al. 2019)
